These entries and their values trace back to ChEMBL document CHEMBL1140942.

measurement-notes: Metabolic stability in human liver microsomes assessed as compound remaining at 1 uM after 30 mins by LC/MS
Assay type: ADME, Microsome
condition-parameters: read-out: Stability
TRUE if remaining at 0.5 h, 1 µM is below 80%. FALSE if not; exact matches included in FALSE.

Past entries and their recorded results:
Cc1cc(C(F)(F)F)ccc1NC(=O)N1CCC[C@@H]1C(=O)N(C)Cc1ccc(Cl)cc1 ... TRUE
CN(Cc1ccc(Cl)cc1)C(=O)[C@H]1CCCN1C(=O)Nc1ccc(C(F)(F)F)cc1Cl ... TRUE

(Q) Given Cc1cc(C(F)(F)F)cc(C)c1NC(=O)N1CCC[C@@H]1C(=O)N(C)Cc1ccc(Cl)cc1 , is recorded remaining at 0.5 h, 1 µM strictly lower than 80%?
(A) TRUE

(Q) Also CN(Cc1ccc(Cl)cc1)C(=O)[C@H]1CCCN1C(=O)Nc1ccc(C(F)(F)F)cc1F , if possible.
(A) FALSE
